Origin of measurements: paper PMC9060023

- assay summary: Pharmacokinetic study, 4 weeks repeated oral dosing in cynomolgus monkeys
- Type: in vivo, cynomolgus monkey
- setup conditions: plasma; cynomolgus monkey, female, 10 mg/kg oral, day 28
attribute measured: Tmax (h)
Answer with a number only, understood to be in h.

// `COC[C@H]1CN(C(=O)[C@]2(F)CN(C3CCCC3)C[C@H]2c2ccc(OC)cc2)C[C@@H]1c1ccc(C(F)(F)F)cc1N1CCC(C(=O)O)CC1` : Tmax value = 1.8

###

- assay summary: Pharmacokinetic study, 4 weeks repeated oral dosing in cynomolgus monkeys
- Format: in vivo, cynomolgus monkey
- setup conditions: plasma; cynomolgus monkey, female, 3 mg/kg oral, day 28
attribute measured: Tmax (h)
Report as a plain number; the unit h is understood.

Given item `COC[C@H]1CN(C(=O)[C@]2(F)CN(C3CCCC3)C[C@H]2c2ccc(OC)cc2)C[C@@H]1c1ccc(C(F)(F)F)cc1N1CCC(C(=O)O)CC1` , the value recorded as its Tmax is 1

###

- assay summary: Pharmacokinetic study, single oral dose in Ay/a mice
- Type: in vivo, mouse
- setup conditions: plasma; Ay/a mouse, male, 0.3 mg/kg oral, day 1
attribute measured: Tmax (h)
A number alone suffices; assume h.

Looking up `COC[C@H]1CN(C(=O)[C@]2(F)CN(C3CCCC3)C[C@H]2c2ccc(OC)cc2)C[C@@H]1c1ccc(C(F)(F)F)cc1N1CCC(C(=O)O)CC1` , I see its Tmax listed as 2

###

- assay summary: Pharmacokinetic study, 4 weeks repeated oral dosing in cynomolgus monkeys
- Type: in vivo, cynomolgus monkey
- setup conditions: plasma; cynomolgus monkey, female, 10 mg/kg oral, day 28; read-out: C max
attribute measured: Cmax (ng/mL)
Answer with a number only, understood to be in ng/mL.

Record `COC[C@H]1CN(C(=O)[C@]2(F)CN(C3CCCC3)C[C@H]2c2ccc(OC)cc2)C[C@@H]1c1ccc(C(F)(F)F)cc1N1CCC(C(=O)O)CC1` , field Cmax: 1510

###

- assay summary: Pharmacokinetic study, single oral dose in Ay/a mice
- Format: in vivo, mouse
- setup conditions: male, Ay/a, mouse, plasma, po, 0.03 mg/kg, Ay/a mouse, male, 0.03 mg/kg oral, day 1; read-out: C max
attribute measured: Cmax (ng/mL)
Write the value in ng/mL as a bare number.

Short answer for `COC[C@H]1CN(C(=O)[C@]2(F)CN(C3CCCC3)C[C@H]2c2ccc(OC)cc2)C[C@@H]1c1ccc(C(F)(F)F)cc1N1CCC(C(=O)O)CC1` : Cmax was 0.668

###

- assay summary: Pharmacokinetic study, 4 weeks repeated oral dosing in cynomolgus monkeys
- Format: in vivo, cynomolgus monkey
- setup conditions: plasma; cynomolgus monkey, female, 10 mg/kg oral, day 28; read-out: AUC0–24 h
attribute measured: AUC(0-t)

Quick note, AUC(0-t) for `COC[C@H]1CN(C(=O)[C@]2(F)CN(C3CCCC3)C[C@H]2c2ccc(OC)cc2)C[C@@H]1c1ccc(C(F)(F)F)cc1N1CCC(C(=O)O)CC1` landed at 14100 ng·h/mL

###

- assay summary: Pharmacokinetic study, single oral dose in Ay/a mice
- Assay type: in vivo, mouse
- setup conditions: male, Ay/a, mouse, plasma, po, 0.3 mg/kg, mice, single oral dose 0.3 mg/kg; read-out: Cmax in molar units
attribute measured: Cmax (nM)
Unit nM implied. Number only.

Entry under test: COC[C@H]1CN(C(=O)[C@]2(F)CN(C3CCCC3)C[C@H]2c2ccc(OC)cc2)C[C@@H]1c1ccc(C(F)(F)F)cc1N1CCC(C(=O)O)CC1 [MT‐7117, dersimelagon] . Its Cmax was 8.3

###

- assay summary: Pharmacokinetic study, 4 weeks repeated oral dosing in cynomolgus monkeys
- Assay type: in vivo, cynomolgus monkey
- setup conditions: female, cynomolgus monkey, plasma; monkeys, repeated oral dosing 1 mg/kg; read-out: Cmax in molar units
attribute measured: Cmax
Note: state the figure and append the unit.

Entry COC[C@H]1CN(C(=O)[C@]2(F)CN(C3CCCC3)C[C@H]2c2ccc(OC)cc2)C[C@@H]1c1ccc(C(F)(F)F)cc1N1CCC(C(=O)O)CC1 [MT‐7117, dersimelagon] , Cmax reported as 78 nM

###

- assay summary: Pharmacokinetic study, single oral dose in Ay/a mice
- Type: in vivo, mouse
- setup conditions: plasma; Ay/a mouse, male, 0.03 mg/kg oral, day 1
attribute measured: Tmax (min)
Note: unit min is implicit; provide only the numeric part.

Item: `COC[C@H]1CN(C(=O)[C@]2(F)CN(C3CCCC3)C[C@H]2c2ccc(OC)cc2)C[C@@H]1c1ccc(C(F)(F)F)cc1N1CCC(C(=O)O)CC1` | Tmax: 30

###

- assay summary: Pharmacokinetic study, single oral dose in Ay/a mice
- Type: in vivo, mouse
- setup conditions: plasma; Ay/a mouse, male, 0.3 mg/kg oral, day 1; read-out: AUC0–8 h
attribute measured: AUC(0-t)
Remember to quote the unit after the number.

The measured AUC(0-t) associated with `COC[C@H]1CN(C(=O)[C@]2(F)CN(C3CCCC3)C[C@H]2c2ccc(OC)cc2)C[C@@H]1c1ccc(C(F)(F)F)cc1N1CCC(C(=O)O)CC1` reads 31.8 ng·h/mL

###

- assay summary: Pharmacokinetic study, 4 weeks repeated oral dosing in cynomolgus monkeys
- Format: in vivo, cynomolgus monkey
- setup conditions: plasma; cynomolgus monkey, female, 3 mg/kg oral, day 28; read-out: C max
attribute measured: Cmax
Reply with a number, then the unit it belongs to.

Consider `COC[C@H]1CN(C(=O)[C@]2(F)CN(C3CCCC3)C[C@H]2c2ccc(OC)cc2)C[C@@H]1c1ccc(C(F)(F)F)cc1N1CCC(C(=O)O)CC1` . Its measured Cmax is 401 ng/mL

###

- assay summary: Pharmacokinetic study, 4 weeks repeated oral dosing in cynomolgus monkeys
- Assay type: in vivo, cynomolgus monkey
- setup conditions: plasma; cynomolgus monkey, female, 1 mg/kg oral, day 28; read-out: AUC0–24 h
attribute measured: AUC(0-t) (ng·h/mL)
Could you give me the number in ng·h/mL? Just the number is fine.

For record COC[C@H]1CN(C(=O)[C@]2(F)CN(C3CCCC3)C[C@H]2c2ccc(OC)cc2)C[C@@H]1c1ccc(C(F)(F)F)cc1N1CCC(C(=O)O)CC1 [MT‐7117, dersimelagon] the listed AUC(0-t) is 428

###

- target desc: rat MC1R (Rattus norvegicus)
- Sequence (B6ZGR5 1-317): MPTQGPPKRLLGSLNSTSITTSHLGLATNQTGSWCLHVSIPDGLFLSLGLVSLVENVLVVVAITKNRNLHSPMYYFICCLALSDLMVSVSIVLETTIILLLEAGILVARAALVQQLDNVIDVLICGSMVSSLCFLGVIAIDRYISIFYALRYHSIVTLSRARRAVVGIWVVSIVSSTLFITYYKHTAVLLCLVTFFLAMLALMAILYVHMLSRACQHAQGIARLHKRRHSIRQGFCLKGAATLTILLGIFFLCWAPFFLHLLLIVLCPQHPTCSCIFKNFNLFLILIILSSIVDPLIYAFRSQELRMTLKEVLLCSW
- assay summary: Cyclic AMP assay in HEK293 cells stably expressing rat MC1R
- setup conditions: data not shown, read-out: EC50 agonistic activity (cAMP)
attribute measured: EC50 (nM)
Provide the reading as a plain figure in nM.

For this compound ( `COC[C@H]1CN(C(=O)[C@]2(F)CN(C3CCCC3)C[C@H]2c2ccc(OC)cc2)C[C@@H]1c1ccc(C(F)(F)F)cc1N1CCC(C(=O)O)CC1` ), measured EC50 is 0.251

###

- target desc: cynomolgus monkey MC1R (cmMC1R) (Macaca fascicularis, UniProt A3KF53)
- Sequence (A3KF53 1-317): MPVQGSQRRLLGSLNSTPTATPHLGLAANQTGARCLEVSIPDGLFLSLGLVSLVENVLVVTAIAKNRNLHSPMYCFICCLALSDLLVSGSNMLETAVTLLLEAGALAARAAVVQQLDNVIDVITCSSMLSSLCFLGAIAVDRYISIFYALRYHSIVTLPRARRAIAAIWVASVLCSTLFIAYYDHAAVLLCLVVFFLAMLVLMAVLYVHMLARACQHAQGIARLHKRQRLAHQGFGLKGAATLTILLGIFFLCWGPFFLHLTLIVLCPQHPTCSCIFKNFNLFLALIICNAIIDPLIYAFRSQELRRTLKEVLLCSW
- assay summary: Cyclic AMP assay in HEK293 cells stably expressing cmMC1R
- setup conditions: cmMC1R on HEK293; geometric mean of three experiments; read-out: EC50 agonistic activity (cAMP)
attribute measured: pEC50
Answer as the number alone; pEC50 is minus log10 of concentration in mol/L.

The molecule listed as COC[C@H]1CN(C(=O)[C@]2(F)CN(C3CCCC3)C[C@H]2c2ccc(OC)cc2)C[C@@H]1c1ccc(C(F)(F)F)cc1N1CCC(C(=O)O)CC1 [MT‐7117, dersimelagon] has a reported pEC50 of 8.41

###

- assay summary: Pharmacokinetic study, 4 weeks repeated oral dosing in cynomolgus monkeys
- Type: in vivo, cynomolgus monkey
- setup conditions: plasma; cynomolgus monkey, female, 3 mg/kg oral, day 28; read-out: AUC0–24 h
attribute measured: AUC(0-t)

AUC(0-t) for `COC[C@H]1CN(C(=O)[C@]2(F)CN(C3CCCC3)C[C@H]2c2ccc(OC)cc2)C[C@@H]1c1ccc(C(F)(F)F)cc1N1CCC(C(=O)O)CC1` is 2510 ng·h/mL

###

- assay summary: Pharmacokinetic study, 4 weeks repeated oral dosing in cynomolgus monkeys
- Assay type: in vivo, cynomolgus monkey
- setup conditions: plasma; cynomolgus monkey, female, 1 mg/kg oral, day 28
attribute measured: Tmax (h)
API: value field is a number in h; no unit string.

Lab note: `COC[C@H]1CN(C(=O)[C@]2(F)CN(C3CCCC3)C[C@H]2c2ccc(OC)cc2)C[C@@H]1c1ccc(C(F)(F)F)cc1N1CCC(C(=O)O)CC1` gave Tmax of 2.6

###

- assay summary: Pharmacokinetic study, single oral dose in Ay/a mice
- Assay type: in vivo, mouse
- setup conditions: male, Ay/a, mouse, plasma, po, 0.3 mg/kg, Ay/a mouse, male, 0.3 mg/kg oral, day 1; read-out: C max
attribute measured: Cmax (ng/mL)
Record the value in ng/mL, omitting the unit from your answer.

Please fill in: Cmax reported for COC[C@H]1CN(C(=O)[C@]2(F)CN(C3CCCC3)C[C@H]2c2ccc(OC)cc2)C[C@@H]1c1ccc(C(F)(F)F)cc1N1CCC(C(=O)O)CC1 [MT‐7117, dersimelagon] = 5.6
